Target: activated ERK2 (Homo sapiens (Human))
Sequence (P28482 whole entry): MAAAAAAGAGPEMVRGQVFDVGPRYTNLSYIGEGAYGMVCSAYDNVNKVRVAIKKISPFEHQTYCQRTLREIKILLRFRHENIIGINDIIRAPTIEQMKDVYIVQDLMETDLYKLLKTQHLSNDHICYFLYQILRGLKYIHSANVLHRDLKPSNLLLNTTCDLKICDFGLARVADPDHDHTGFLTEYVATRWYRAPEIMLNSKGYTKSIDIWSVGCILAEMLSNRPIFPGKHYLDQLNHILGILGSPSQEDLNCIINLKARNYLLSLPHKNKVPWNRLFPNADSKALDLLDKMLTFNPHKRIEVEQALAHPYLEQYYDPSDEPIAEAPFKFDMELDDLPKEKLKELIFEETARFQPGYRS
Assay: Activated ERK2 (20 pM) Kinase Assay (AlphaScreen, ERKtide phosphorylation)
Type: biochemical
Settings: 0.02 nM ERK2, 400 nM ERKtide peptide, 35 μM ATP, 30 min preincubation
Output schema: class label derived from IC50. Mapping: low end: < 0.06 nM; middle: ≥ 0.06 nM and < 3 nM; high end: ≥ 3 nM

// query Class label required: "Nc1ncc([C@@H]2CC[C@@H](O)[C@H](O)C2)nc1-c1ccc(C(=O)N[C@H](CO)c2cc(F)cc(I)c2)c(F)c1"
// result low end

// query Bin this entry: CN1C[C@@H](NC(=O)c2ccc(-c3cc(-c4cnn(C)c4)cnc3N)cc2F)[C@H](c2ccc(Cl)c(F)c2)C1 (stereo in doubt)
// result high end

// query Where would "C[C@@H](NC(=O)c1ccc(-c2cc([C@@H]3CCN(C)C(=O)C3)cnc2N)cc1F)c1ccccc1" land among the classes by reported IC50?
// result high end

// query Hey, which category is "C[C@]1(O)CC[C@H](c2cnc(N)c(-c3ccc(C(=O)N[C@H](CO)c4cccc(Cl)c4)c(F)c3)n2)CC1" in, do you know?
// result middle

// query Please let me know in which category the item "CNC[C@@H](NC(=O)c1ccc(-c2nc([C@H]3CC[C@H](O)CC3)cnc2N)cc1F)c1cccc(Br)c1" belongs.
// result low end

// query Which class does "C[C@]1(O)CC[C@@H](c2cnc(N)c(-c3ccc(C(=O)N[C@H](CO)c4cccc(Cl)c4)c(F)c3)n2)CC1" fall in?
// result middle

// query Assign a bin to Nc1ncc(C2CCCC(O)C2)nc1-c1ccc(C(=O)N[C@H](CO)c2cccc(Cl)c2)c(F)c1 (single isomer, unassigned) [Example 393]
// result middle

// query Using the reported IC50, which band applies to "NC[C@@H](NC(=O)c1ccc(-c2nc(C3CCOCC3)cnc2N)cc1F)c1cccc(Cl)c1" ?
// result low end

// query Place this molecule in its band: "C[C@@H](O)[C@@H](NC(=O)c1ccc(-c2nc([C@H]3CC[C@H](O)CC3)cnc2N)cc1F)c1cccc(Cl)c1"
// result middle

// query Please let me know in which category the item "NC[C@@H](NC(=O)c1ccc(-c2nc(C3CCOCC3)cnc2N)cc1F)c1cc(F)cc(Br)c1" belongs.
// result low end

// query Textbook exercise: identify the category of the molecule given here, "CNC[C@@H](NC(=O)c1ccc(-c2nc([C@H]3CC[C@H](O)CC3)cnc2N)cc1F)c1cc(F)cc(I)c1" , according to its measured value.
// result low end

// query Which class does "Nc1ncc([C@H]2CC[C@H](O)[C@@H](F)C2)nc1-c1ccc(C(=O)N[C@H](CO)c2cc(F)cc(I)c2)c(F)c1" fall in?
// result low end

// query Into which category would you place "N#Cc1cc(-c2cc(C3CCOCC3)cnc2N)cc(F)c1C(=O)NCc1ccccc1" ?
// result high end

// query In plain terms, what class is "Nc1ncc(C2CCC(F)(F)CC2)nc1-c1ccc(C(=O)N[C@H](CO)c2cccc(Cl)c2)c(F)c1" ?
// result middle

// query Lab note: which band did "COC(=O)N1CCC(c2cnc(N)c(-c3ccc(C(=O)N[C@H](CO)c4ccccc4)cc3)c2)CC1" land in?
// result high end

// query For the record "Nc1ncc(C2CCOCC2)cc1-c1ccc(C(=O)N[C@H](CO)c2ccccc2)cc1F" , report the class its IC50 corresponds to.
// result high end

// query Could you tell me which band CN1C[C@H](NC(=O)c2ccc(-c3cc(-c4cnn(C)c4)cnc3N)cc2F)[C@@H](c2ccc(F)c(Cl)c2)C1 (stereo in doubt) belongs to?
// result high end

// query Which class holds "Nc1ncc(C2=CCOCC2)nc1-c1ccc(C(=O)N[C@H](CO)c2cccc(Cl)c2)c(F)c1" ?
// result middle

// query Hi, small favor: classify "CNC[C@@H](NC(=O)c1ccc(-c2nc([C@@H]3CC[C@@H](O)[C@H](F)C3)cnc2N)cc1F)c1cccc(Br)c1" by its IC50 when you get a moment.
// result middle

// query Which IC50 category applies to "Nc1ncc(C2CCOCC2)cc1-c1ccc(C(=O)NCc2ccccc2)cc1" here?
// result high end

// query Lab note: which band did "CNC[C@@H](NC(=O)c1ccc(-c2nc([C@H]3CC[C@H](O)C(F)(F)C3)cnc2N)cc1F)c1cc(F)cc(Br)c1" land in?
// result middle

// query Bin this entry: "Cc1nn(C)cc1-c1cnc(N)c(-c2ccc(C(=O)N[C@H](CO)c3cccc(CF)c3)c(F)c2)c1"
// result low end

// query Bin this entry: "Nc1ncc(C(=O)N2CCC(CO)CC2)nc1-c1ccc(C(=O)N[C@H](CO)c2cc(F)cc(Br)c2)c(F)c1"
// result high end

Data provenance is patent US9242996B2.
